Recorded Screen- Rabbit/No Protein, one value per entry.
tested on: rabbit vWF A1 domain (SEQ ID NO 6); assay: 3-point dot blot screen, rabbit vWF A1 domain; format: binding; conditions: DNA SELEX 1 aptamers; 100 nM rabbit vWF A1 domain; ratio of fraction bound with target to without
Sequence (as listed by the source): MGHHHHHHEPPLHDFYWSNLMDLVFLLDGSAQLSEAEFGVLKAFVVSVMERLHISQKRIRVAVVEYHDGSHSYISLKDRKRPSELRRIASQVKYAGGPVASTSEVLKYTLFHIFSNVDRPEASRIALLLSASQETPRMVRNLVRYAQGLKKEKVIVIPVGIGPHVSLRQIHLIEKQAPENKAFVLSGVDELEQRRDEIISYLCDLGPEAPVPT

molecule	Screen- Rabbit/No Protein
AMX199.G4: DNA SELEX 1 aptamer clone (nucleic acid, DNA, backbone not given here, DNA SELEX 1 aptamer clone) DNA: CTACCTACGATCTGACTAGCGAAACACTAGGTTGGTTAGGATTGGTGTGTTCCCGCTATGCTTACTCTCATGTAGTTCC	1.11
AMX202.D6: DNA SELEX 1 aptamer clone (nucleic acid, DNA, backbone not given here, DNA SELEX 1 aptamer clone) DNA: CTACCTACGATCTGACTAGCGGAATGAGAAGGCTGATGGATTGCTCAGGTCTGCTGGCTGCTTACTCTCATGTAGTTCC	1.55
AMX199.B6: DNA SELEX 1 aptamer clone (nucleic acid, DNA, backbone not given here, DNA SELEX 1 aptamer clone) DNA: CTACCTACGATCTGACTAGCAAGGGGATTGGCTCCGGGTCTGGCGTGCTTGGTACCTCCGGCTTACTCTCATGTAGTTCC	1.91
AMX200.A11: DNA SELEX 1 aptamer clone (nucleic acid, DNA, backbone not given here, DNA SELEX 1 aptamer clone) DNA: CTACCTACGATCTGACTAGCTGAGTAGTTAGTAACTTTTTATTATGGTTTGGTGGGTCTGGCTTACTCTCATGTAGTTCC	1.19
AMX199.D11: DNA SELEX 1 aptamer clone (nucleic acid, DNA, backbone not given here, DNA SELEX 1 aptamer clone) DNA: CTACCTACGATCTGACTAGCGGAATGAGAATGCTGGTGGATTGCTCAGGTCTGCTGGCTGCTTACTCTCATGTAGTTCC	3.42
AMX200.B8: DNA SELEX 1 aptamer clone (nucleic acid, DNA, backbone not given here, DNA SELEX 1 aptamer clone) DNA: CTACCTACGATCTGACTAGCGGAATGAGAATGTTGGTGGATTGCTCAGGTCTGCTGGCTGCTTACTCTCATGTAGTTCC	3.13
